- assay-text: Bioavailability was determined in dogs after a dose of 23 uM/kg.
- Type: ADME, organism-based, Canis lupus familiaris
- study-conditions: dog, in vivo

# item-smiles, bioavailability (%)
measured = [
    ("CCn1ncc2c(NCc3ccc(OC)c(Cl)c3)c(C(=O)NCc3ccncc3)cnc21", 66),
]

* * *

- assay-text: Bioavailability was determined in dogs.
- Format: ADME, organism-based, Canis lupus familiaris
- study-conditions: dog, in vivo
endpoint: bioavailability (%)

# item-smiles, units-of-measure, data-value
rows = [
    ("CCCc1nn(C)c2c(=O)[nH]c(-c3cc(S(=O)(=O)N4CCN(C)CC4)ccc3OCC)nc12", "%", 54),
]
